# key: entry, value: Plant response rating, Wild oats
test system: wild oat; test: Test B pre/postemergence wild oat; assay type: in vivo, Avena fatua; details: Preemergence, Rate 500 g/ha; scale of 0 to 10 where 0 is no effect and 10 is complete control
Enter the number alone.

A selection of reference data follows.
molecule	Plant response rating, Wild oats
CC(C)N(C(=O)n1oc(=O)n(CC2=NOCCC2)c1=O)c1ccc(F)cc1	8
CC(C)N(C(=O)n1oc(=O)n(C(C)C(=O)c2ccccc2)c1=O)c1ccc(F)cc1 (stereo not shown)	0
CC(C)N(C(=O)n1oc(=O)n(C2CC2)c1=O)c1ccc(Cl)cc1	8
CC(C)N(C(=O)n1oc(=O)n(C2CCCC2)c1=O)c1ccc(F)cc1F	5
CCN(CC)C(=O)n1oc(=O)n(C2CC2)c1=O	0
CC(=O)OCC(CCl)n1c(=O)on(C(=O)N(c2ccc(F)cc2)C(C)C)c1=O (stereo not shown)	0

Consider now this further molecule.
Lab note: "CC(C)N(C(=O)n1oc(=O)n(Cc2ccco2)c1=O)c1ccc(F)cc1" gave Plant response rating, Wild oats of 0

###

Reported Redroot pigweed plant response rating is given for each of the following compounds.
test system: pigweed; assay: Test B pre/postemergence pigweed; type: in vivo, Amaranthus retroflexus; details: Rate 125 g/ha; Preemergence; scale of 0 to 10 where 0 is no effect and 10 is complete control
In your answer, state the number alone without any accompanying words.

Solved entries:
compound	Redroot pigweed plant response rating
CC(C)N(C(=O)n1oc(=O)n(CC2(C)COC2)c1=O)c1ccc(F)cc1 [Compound 226]	0
CCCCCC#CCn1c(=O)on(C(=O)N(c2ccc(F)cc2)C(C)C)c1=O [Compound 254]	0

Turning to the following compound.
Item: CC(C)N(C(=O)n1oc(=O)n(CC2CC2)c1=O)c1ccc(F)cc1 [Compound 251] | Redroot pigweed plant response rating: 5

###

test system: velvetleaf; experiment: Test B pre/postemergence velvetleaf; assay type: in vivo, Abutilon theophrasti; details: Preemergence, Rate 62 g/ha; scale of 0 to 10 where 0 is no effect and 10 is complete control
readout label: Velvetleaf plant response rating
The answer should be a number; do not append a unit.

In the examples that follow, each entry is paired with its recorded Velvetleaf plant response rating.
compound	Velvetleaf plant response rating
Cc1ccccc1-n1c(=O)on(C(=O)N(c2ccc(C(C)(C)C)cc2)C(C)C)c1=O [Compound 270]	0
CC(C)N(C(=O)n1oc(=O)n(C2CCCC2)c1=O)c1ccc(F)cc1F [Compound 284]	0
CC(C)N(C(=O)n1oc(=O)n(CCC(=O)N(C)C)c1=O)c1ccccc1 [Compound 671]	2

With those in mind, consider the next compound.
Entry under test: CC(C)N(C(=O)n1oc(=O)n(C(CCl)CCl)c1=O)c1ccc(F)cc1 [Compound 672] . Its Velvetleaf plant response rating was 0

###

tested on: sugar beet; test: Test B pre/postemergence sugar beet; format: in vivo, Beta vulgaris; settings: Postemergence, Rate 62 g/ha; scale 0 to 10, 0 is no effect, 10 is complete control
readout label: Sugarbeets plant response rating
Just the number, please, no unit after it.

Recorded Sugarbeets plant response rating, per entry:
molecule	obs value
CCc1ccccc1-n1c(=O)on(C(=O)N(c2ccc(F)cc2F)C(C)C)c1=O [Compound 45]	0
Cc1ccccc1-n1c(=O)on(C(=O)N(c2ccc(Cl)cc2)C(C)C)c1=O [Compound 41]	0
C=CCn1c(=O)on(C(=O)N(c2ccccc2)C(C)C)c1=O [Compound 93]	2

We next turn to a different molecule, shown below.
# molecule CCN(CC)C(=O)n1oc(=O)n(-c2cccc3c2CCCC3)c1=O [Compound 89] ; its Sugarbeets plant response rating = 0

Numbers sourced from patent US6737383B1.
